Below, each of the molecules is paired with its reported IC50 value.
# target.or.system: UniProt P26358
# Sequence (P26358 whole entry): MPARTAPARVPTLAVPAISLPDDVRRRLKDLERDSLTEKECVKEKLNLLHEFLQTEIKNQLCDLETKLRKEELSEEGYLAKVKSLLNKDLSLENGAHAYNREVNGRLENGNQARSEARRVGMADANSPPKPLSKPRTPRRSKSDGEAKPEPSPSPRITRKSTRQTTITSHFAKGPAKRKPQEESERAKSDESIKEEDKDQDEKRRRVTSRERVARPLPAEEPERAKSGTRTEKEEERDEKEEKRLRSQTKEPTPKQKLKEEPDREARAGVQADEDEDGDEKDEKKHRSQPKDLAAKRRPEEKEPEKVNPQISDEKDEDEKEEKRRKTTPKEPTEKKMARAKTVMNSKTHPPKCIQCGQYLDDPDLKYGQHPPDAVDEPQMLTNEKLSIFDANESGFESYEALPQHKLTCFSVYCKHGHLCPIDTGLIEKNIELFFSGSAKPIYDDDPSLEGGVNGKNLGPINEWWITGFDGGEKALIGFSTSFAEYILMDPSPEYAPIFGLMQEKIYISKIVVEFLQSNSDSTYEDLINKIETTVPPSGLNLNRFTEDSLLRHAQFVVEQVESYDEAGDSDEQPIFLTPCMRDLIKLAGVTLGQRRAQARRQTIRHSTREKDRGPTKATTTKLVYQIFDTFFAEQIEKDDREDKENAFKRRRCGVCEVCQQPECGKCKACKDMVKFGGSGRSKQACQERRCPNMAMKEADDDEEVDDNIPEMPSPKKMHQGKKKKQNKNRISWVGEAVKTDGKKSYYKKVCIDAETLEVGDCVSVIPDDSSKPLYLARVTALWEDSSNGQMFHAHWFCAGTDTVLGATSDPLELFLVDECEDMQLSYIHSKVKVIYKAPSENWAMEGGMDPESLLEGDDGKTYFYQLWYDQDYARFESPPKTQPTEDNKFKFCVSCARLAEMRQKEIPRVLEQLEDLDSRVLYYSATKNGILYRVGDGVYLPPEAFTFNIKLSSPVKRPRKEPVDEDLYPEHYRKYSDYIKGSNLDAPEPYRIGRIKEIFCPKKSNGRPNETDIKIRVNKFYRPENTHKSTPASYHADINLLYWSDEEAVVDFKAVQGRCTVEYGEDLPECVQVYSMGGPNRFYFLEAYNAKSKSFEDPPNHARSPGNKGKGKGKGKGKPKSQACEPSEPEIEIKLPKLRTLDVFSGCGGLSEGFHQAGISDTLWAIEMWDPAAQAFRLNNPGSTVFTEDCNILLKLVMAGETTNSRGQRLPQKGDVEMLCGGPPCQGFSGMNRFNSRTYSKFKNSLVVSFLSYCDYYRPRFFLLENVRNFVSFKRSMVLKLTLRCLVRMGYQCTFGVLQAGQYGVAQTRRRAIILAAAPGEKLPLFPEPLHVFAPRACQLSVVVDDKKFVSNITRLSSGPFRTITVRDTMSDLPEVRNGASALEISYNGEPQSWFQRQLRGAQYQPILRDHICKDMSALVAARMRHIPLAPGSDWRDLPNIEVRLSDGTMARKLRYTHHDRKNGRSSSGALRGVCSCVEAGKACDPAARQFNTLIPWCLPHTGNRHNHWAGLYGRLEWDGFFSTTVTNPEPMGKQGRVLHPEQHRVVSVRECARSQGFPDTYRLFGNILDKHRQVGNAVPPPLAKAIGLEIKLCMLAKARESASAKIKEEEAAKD

Look over these answered cases.
1. COc1cc2c(cc1OCCCN1CCCC1)nc(-c1ccc(C)o1)c1cc(CC3CCN(C)CC3)[nH]c12 | 100 to 500 nM
2. Cc1ccc(-c2nc3cc(OCCCN4CCCC4)ccc3c3c2CCCN3)o1 | 500 to 1000 nM

Read the next record carefully.
Exam item: Entry under review: `COc1cc2c(cc1OCCCN1CCCC1)nc(-c1ccc(C)o1)c1ccc(CC3CCNCC3)nc12` . Reported IC50?
Marked response: 500 to 1000 nM
